system: SN12C; test: NCI tumour cell line growth inhibition, 48 h
The campaign covered roughly 58,000 sequences. About 3,500 (6%) were called active. The list is a sample of the results. Measured potencies and affinities stand elsewhere.
assay.metric: GI50 (µM)
Give the value in µM but do not write µM after it.

Problem: Given the substance [Bis(aminomethyl)tetramethylenesilane]tetrachloropaltinum(IV), CHEMBL2146189 , write its reported GI50.
Result: 2.64

Problem: Given the substance mu-(1,7-nanodiamine-N,N')bis-(cis-aminedichloroplatimum (II)), CHEMBL2146215 , write its reported GI50.
Result: 0.387

Problem: Given the substance CISPLATIN, CHEMBL11359 , write its reported GI50.
Result: 4.83

Problem: Given the substance [Bis(aminomethyl)ethylmethylsilane]tetrachloroplatinum(IV), CHEMBL2146192 , write its reported GI50.
Result: 4.25

Problem: Given the substance [Bis(aminomethyl)diethylsilane]tetrachloroplatinum(IV), CHEMBL2146203 , write its reported GI50.
Result: 2.34

Problem: Given the substance [Bis(aminomethyl)tetramethylenesilane]dichloropaltinum(II), CHEMBL2146205 , write its reported GI50.
Result: 23.9

Problem: Given the substance cis-Bis[[(trimethylsilyl)methyl]amino]tetrachloroplatinum(IV), CHEMBL2146191 , write its reported GI50.
Result: 13.1

Problem: Given the substance [Bis(aminomethyl)dimethylsilane]dichloroplatinum (II), CHEMBL2146201 , write its reported GI50.
Result: 32.4
